molecular target: THR beta (Homo sapiens, UniProt P10828); construct: expressed in transfected cells; host or cells: HEK293T (ATCC CRL-3216); assay: HEK293T THR beta/RXR luciferase reporter assay (Assay 2); format: cell-based; conditions: THR-beta, HEK293T reporter assay; read-out: Activity category Assay 2 (EC50, THR-beta agonist)
Sequence (P10828 whole entry): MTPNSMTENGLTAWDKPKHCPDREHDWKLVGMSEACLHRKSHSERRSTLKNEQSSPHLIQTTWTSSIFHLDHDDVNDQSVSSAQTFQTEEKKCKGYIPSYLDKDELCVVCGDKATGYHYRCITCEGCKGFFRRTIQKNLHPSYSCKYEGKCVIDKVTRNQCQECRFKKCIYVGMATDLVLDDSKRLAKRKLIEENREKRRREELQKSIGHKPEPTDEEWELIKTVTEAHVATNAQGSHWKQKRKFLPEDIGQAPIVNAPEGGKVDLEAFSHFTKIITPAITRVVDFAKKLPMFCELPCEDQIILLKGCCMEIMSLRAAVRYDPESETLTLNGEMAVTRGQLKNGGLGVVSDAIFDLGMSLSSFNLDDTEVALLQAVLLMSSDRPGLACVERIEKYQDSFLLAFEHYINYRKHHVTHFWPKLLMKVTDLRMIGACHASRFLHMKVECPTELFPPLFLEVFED
Sequence (P19793 whole entry partner): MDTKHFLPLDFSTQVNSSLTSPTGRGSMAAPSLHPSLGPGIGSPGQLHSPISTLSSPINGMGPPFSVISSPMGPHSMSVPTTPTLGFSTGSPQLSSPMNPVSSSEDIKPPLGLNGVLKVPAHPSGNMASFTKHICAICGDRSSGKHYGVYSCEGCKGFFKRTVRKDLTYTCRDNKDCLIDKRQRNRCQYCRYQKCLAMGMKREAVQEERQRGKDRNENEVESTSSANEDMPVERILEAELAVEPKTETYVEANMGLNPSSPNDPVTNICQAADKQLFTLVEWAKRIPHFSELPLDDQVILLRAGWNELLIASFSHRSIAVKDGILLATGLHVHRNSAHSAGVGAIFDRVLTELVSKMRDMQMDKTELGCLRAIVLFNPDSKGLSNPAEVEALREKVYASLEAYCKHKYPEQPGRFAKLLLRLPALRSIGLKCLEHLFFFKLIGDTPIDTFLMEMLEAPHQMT
pEC50: −log10 of the molar value.
quantityName: pEC50

[[record]]
structurestring = "CO[C@H]1C[C@H](c2cc(Oc3c(Cl)cc(-n4nc(N)c(=O)[nH]c4=O)cc3Cl)n[nH]c2=O)C1"
result = "5.00 to 6.00"

[[record]]
structurestring = "Nc1nn(-c2cc(Cl)c(Oc3cc(C4Cc5ccccc5C4)c(=O)[nH]n3)c(Cl)c2)c(=O)[nH]c1=O"
result = "6.00 to 6.60"

[[record]]
structurestring = "Nc1nn(-c2cc(Cl)c(Oc3n[nH]c(=O)cc3-c3ccccc3)c(Cl)c2)c(=O)[nH]c1=O"
result = "< 5.00"

[[record]]
structurestring = "N#Cc1nn(-c2cc(Cl)c(Oc3ccc4[nH]cc(C5CCCC5)c4c3)c(Cl)c2)c(=O)[nH]c1=O"
result = "6.00 to 6.60"

[[record]]
structurestring = "Nc1nn(-c2cc(Cl)c(Oc3cc(C4CCC(F)(F)CC4)c(=O)[nH]n3)c(Cl)c2)c(=O)[nH]c1=O"
result = "5.00 to 6.00"

[[record]]
structurestring = "C=C(C)c1cc(Oc2c(Cl)cc(-n3nc(N)c(=O)[nH]c3=O)cc2Cl)n[nH]c1=O"
result = "6.00 to 6.60"


In the following, a different molecule is considered.
Query: Sample "CC(C)c1c[nH]c2nnc(Oc3c(Cl)cc(-n4nc(C#N)c(=O)[nH]c4=O)cc3Cl)cc12" — what was its pEC50?
Result: < 5.00
